Source: patent US9834521B2

- system name: truncated form of human Choline kinase α1 that includes residues 75-457 (Homo sapiens, UniProt P35790)
- Construct: made in house
- Sequence (P35790 75-457): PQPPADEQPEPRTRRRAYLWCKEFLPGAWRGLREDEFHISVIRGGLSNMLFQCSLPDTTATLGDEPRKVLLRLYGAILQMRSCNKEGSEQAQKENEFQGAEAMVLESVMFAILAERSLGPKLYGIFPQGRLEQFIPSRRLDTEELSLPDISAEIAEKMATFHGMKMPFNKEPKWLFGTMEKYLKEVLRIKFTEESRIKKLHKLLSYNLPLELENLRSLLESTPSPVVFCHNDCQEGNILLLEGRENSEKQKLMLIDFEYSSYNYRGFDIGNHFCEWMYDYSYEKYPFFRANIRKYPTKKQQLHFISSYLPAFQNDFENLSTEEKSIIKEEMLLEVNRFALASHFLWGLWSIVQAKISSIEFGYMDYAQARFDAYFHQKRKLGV
- assay overview: Kinase Assay, coupled (ATP regeneration) LDH/PK assay, NADH absorbance
- Format: biochemical
- condition summary: Examples not designated with an asterisk; footnote prints version 1 of the Kinase Assay; read-out: IC50
property measured: IC50

Some entries whose results are on file:
The recorded IC50 for entry "CN1CCCN(Cc2ccc(-c3ccc(C(=O)N4CCCN(C)CC4)cc3F)cc2)CC1" equals < 2000 nM

The recorded IC50 for entry "COCCN1CCN(Cc2ccc(-c3ccc(CN4CCCN(C)CC4)cc3C#N)cc2)CC1" equals < 500 nM

The recorded IC50 for entry "CN1CCCN(Cc2ccc(-c3ccc(C(N)=O)cc3F)c(C#N)c2)CC1" equals < 500 nM

The recorded IC50 for entry "CN1CCCN(Cc2ccc(-c3ccc(NS(C)(=O)=O)cc3)c(C#N)c2)CC1" equals < 100 nM

The recorded IC50 for entry CN1CCCN(Cc2ccc(-c3ccc(CC(N)C(=O)O)cc3)c(C#N)c2)CC1 (stereo not shown) equals < 500 nM

The recorded IC50 for entry "COc1ccc(-c2cc(C(=O)N3CCCN(C)CC3)ccc2-c2ccc(CN3CCCN(C)CC3)cc2C#N)cc1OC" equals < 100 nM

The recorded IC50 for entry CN1CCCN(Cc2ccc(-c3ccc(C(=O)N4CCC(O)C4)cc3)c(C#N)c2)CC1 (stereo not shown) equals < 500 nM

The recorded IC50 for entry "CN1CCCN(Cc2ccc(-c3ccc(S(N)(=O)=O)cc3)c(C#N)c2)CC1" equals < 100 nM

---
The recorded IC50 for entry "Cc1cc(CN2CCCN(C)CC2)ccc1-c1ccc(CO)cc1" equals < 200 nM

The recorded IC50 for entry "CN1CCCN(Cc2ccc(-c3ccc(-c4nnc(N)s4)cc3)cc2)CC1" equals < 2000 nM

The recorded IC50 for entry "CN1CCCN(Cc2ccc(-c3ccc(/C(N)=N/O)cc3)c(C#N)c2)CC1" equals < 500 nM

The recorded IC50 for entry "CN1CCCN(Cc2ccc(-c3ccc(C(=O)N4CCCN(C)CC4)cc3-c3cccc([N+](=O)[O-])c3)c(C#N)c2)CC1" equals < 100 nM

The recorded IC50 for entry "CN1CCCN(Cc2ccc(-c3ccc(C(=O)N4CCCN(C)CC4)cc3-c3cn[nH]c3)c(C#N)c2)CC1" equals < 100 nM

---

- system name: ChoKα protein (Homo sapiens)
- Construct: made in house
- Sequence (P35790 75-457): as above
- assay overview: Binding affinity by surface plasmon resonance (SensiQ Pioneer, FastStep)
property measured: Kd

The recorded Kd for entry "CN1CCCN(Cc2ccc(-c3ccc(C(F)(F)F)cc3)cc2)CC1" equals < 60 µM

---

- system name: truncated form of human Choline kinase α1 that includes residues 75-457 (Homo sapiens)
- Construct: made in house
- assay overview: Kinase Assay, coupled (ATP regeneration) LDH/PK assay, NADH absorbance
- Assay type: biochemical
- condition summary: Examples not designated with an asterisk; footnote prints version 1 of the Kinase Assay; read-out: IC50
property measured: IC50

The recorded IC50 for entry "CN1CCCN(Cc2ccc(-c3ccc(N)cc3)c(C#N)c2)CC1" equals < 2000 nM

The recorded IC50 for entry CN1CCCN(Cc2ccc(-c3ccc(CN4CCC(CO)C4)cc3)c(C#N)c2)CC1 (stereo not drawn) equals < 200 nM

The recorded IC50 for entry "Cc1cc(S(=O)(=O)N(C)C)ccc1-c1ccc(CN2CCCN(C)CC2)cc1C#N" equals < 500 nM

The recorded IC50 for entry "CN1CCCN(Cc2ccc(-c3ccccc3C(N)=O)cc2)CC1" equals < 50000 nM

The recorded IC50 for entry "CN1CCCN(Cc2ccc(-c3ccc(O)cc3)c(C#N)c2)CC1" equals < 500 nM

Next, consider the following compound.
The recorded IC50 for entry "CN1CCCN(Cc2ccc(-c3ccc(C(=O)N4CCCN(C)CC4)cc3Br)c(C#N)c2)CC1" equals < 500 nM
